- Assayed system: SULT1A2*2 (Homo sapiens, UniProt P50226, I7T/N235T)
- Sequence (P50226 whole entry I7T/N235T): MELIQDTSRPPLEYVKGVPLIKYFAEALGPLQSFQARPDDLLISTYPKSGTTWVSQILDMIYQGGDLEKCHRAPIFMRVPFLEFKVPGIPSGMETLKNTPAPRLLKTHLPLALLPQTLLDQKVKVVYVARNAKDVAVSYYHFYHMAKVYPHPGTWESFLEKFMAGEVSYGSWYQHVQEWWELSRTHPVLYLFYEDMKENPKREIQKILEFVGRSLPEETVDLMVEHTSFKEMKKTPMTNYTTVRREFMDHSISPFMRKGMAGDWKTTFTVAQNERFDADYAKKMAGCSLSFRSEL
- Assay method text: DCNP inhibition of recombinant SULT1A2*2 (COS-1 cell cytosol)
- Run conditions: 3000 μM 4-nitrophenol, mean±SEM of nine determinations
Property label: IC50 (µM)
Answer with a number only, understood to be in µM.

Task item: Lab note: need IC50 with SULT1A2*2 (Homo sapiens, UniProt P50226, I7T/N235T) for entry O=[N+]([O-])c1cc(Cl)c(O)c(Cl)c1 , please look it up.
Reply: 44.4
